Cited source for all entries: ChEMBL document CHEMBL5543175

system: Protein cereblon/Tyrosine-protein phosphatase non-receptor type 1 (Homo sapiens, UniProt P18031+Q96SW2)
Sequence (P18031 whole entry, looked up): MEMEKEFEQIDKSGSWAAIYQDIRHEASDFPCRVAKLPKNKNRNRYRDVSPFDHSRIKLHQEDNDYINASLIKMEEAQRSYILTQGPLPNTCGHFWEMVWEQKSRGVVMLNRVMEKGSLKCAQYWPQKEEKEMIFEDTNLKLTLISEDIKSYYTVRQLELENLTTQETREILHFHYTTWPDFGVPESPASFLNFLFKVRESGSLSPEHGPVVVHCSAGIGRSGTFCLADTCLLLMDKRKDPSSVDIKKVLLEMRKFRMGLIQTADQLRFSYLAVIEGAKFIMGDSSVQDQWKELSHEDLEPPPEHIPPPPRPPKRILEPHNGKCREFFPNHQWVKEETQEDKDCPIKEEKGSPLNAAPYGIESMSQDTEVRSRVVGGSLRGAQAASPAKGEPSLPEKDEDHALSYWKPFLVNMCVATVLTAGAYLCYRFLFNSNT
Sequence (Q96SW2 whole entry, looked up): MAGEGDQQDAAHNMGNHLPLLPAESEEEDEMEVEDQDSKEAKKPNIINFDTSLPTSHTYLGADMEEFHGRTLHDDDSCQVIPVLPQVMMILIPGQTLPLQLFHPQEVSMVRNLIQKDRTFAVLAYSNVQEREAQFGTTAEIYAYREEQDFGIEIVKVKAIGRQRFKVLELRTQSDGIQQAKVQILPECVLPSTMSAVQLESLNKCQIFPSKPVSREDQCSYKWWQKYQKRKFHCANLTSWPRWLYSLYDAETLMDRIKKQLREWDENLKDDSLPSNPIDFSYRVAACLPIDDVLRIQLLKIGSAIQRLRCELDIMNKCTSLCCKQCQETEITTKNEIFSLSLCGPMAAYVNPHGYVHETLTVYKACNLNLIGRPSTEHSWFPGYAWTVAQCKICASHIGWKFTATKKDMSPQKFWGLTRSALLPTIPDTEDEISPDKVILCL
assay_text: PROTAC activity at PTP1B/CRBN in insulin treated human HepG2 cells assessed as protein degradation at 500 nM incubated for 48 hrs by Western blot analysis relative to control
Assay type: cell-based
experimental_endpoint: Activity (%)
Give the value in % but do not write % after it.

CC1(C)CC[C@]2(C(=O)NCCCCCCOCCOCCOCCOCC(=O)Nc3cccc4c3C(=O)N(C3CCC(=O)NC3=O)C4=O)CC[C@]3(C)C(=CC[C@@H]4[C@@]5(C)CC[C@H](O)C(C)(C)[C@@H]5CC[C@]43C)[C@@H]2C1 (stereo partly drawn)	6

Next compound, Activity to be filled in.
Provide measured Activity value, entry: O=C1CCC(N2C(=O)c3cccc(NC(=O)COCCOCCOCCCCCCNC(=O)c4cccc(NC(=O)CSc5nc6ccccc6[nH]5)c4)c3C2=O)C(=O)N1 (stereo not drawn)
13

----------
system: Protein cereblon/Tyrosine-protein phosphatase non-receptor type 1 (Homo sapiens, UniProt P18031+Q96SW2)
assay_text: PROTAC activity at PTP1B/CRBN in insulin treated human HepG2 cells assessed as protein degradation at 5 nM incubated for 48 hrs by Western blot analysis relative to control
Assay type: cell-based
The following molecules are listed with their measured Activity values.
Give the value in % but do not write % after it.

C[C@H]1[C@H](C)CC[C@]2(C(=O)NCCCCCCNc3cccc4c3C(=O)N(C3CCC(=O)NC3=O)C4=O)CC[C@]3(C)C(=CC[C@@H]4[C@@]5(C)CC[C@H](O)C(C)(C)[C@@H]5CC[C@]43C)[C@H]12 (stereo not given in full)	11
CC1(C)CC[C@]2(C(=O)NCCCOCCOCCOCCCNc3cccc4c3C(=O)N(C3CCC(=O)NC3=O)C4=O)CC[C@]3(C)C(=CC[C@@H]4[C@@]5(C)CC[C@H](O)C(C)(C)[C@@H]5CC[C@]43C)[C@@H]2C1 (stereo not given in full)	38
CC1(C)CC[C@]2(C(=O)NCCCCCCOCCOCCOCCOCC(=O)Nc3cccc4c3C(=O)N(C3CCC(=O)NC3=O)C4=O)CC[C@]3(C)C(=CC[C@@H]4[C@@]5(C)CC[C@H](O)C(C)(C)[C@@H]5CC[C@]43C)[C@@H]2C1 (stereo not given in full)	24
O=C1CCC(N2C(=O)c3cccc(NC(=O)COCCOCCOCCOCCCCCCNC(=O)c4cccc(NC(=O)CSc5nc6ccccc6[nH]5)c4)c3C2=O)C(=O)N1 (stereo not given)	26
CC1(C)CC[C@]2(C(=O)NCCCCCCOCCOCC(=O)Nc3cccc4c3C(=O)N(C3CCC(=O)NC3=O)C4=O)CC[C@]3(C)C(=CC[C@@H]4[C@@]5(C)CC[C@H](O)C(C)(C)[C@@H]5CC[C@]43C)[C@@H]2C1 (stereo not given in full)	57

Provide measured Activity value, entry: C[C@H]1[C@H](C)CC[C@]2(C(=O)NCCCCCCOCCOCCOCCCCCC(=O)Nc3cccc4c3C(=O)N(C3CCC(=O)NC3=O)C4=O)CC[C@]3(C)C(=CC[C@@H]4[C@@]5(C)CC[C@H](O)C(C)(C)[C@@H]5CC[C@]43C)[C@H]12 (stereo not given in full)
16

Provide measured Activity value, entry: C[C@H]1[C@H](C)CC[C@]2(C(=O)NCCCOCCCCOCCCNc3cccc4c3C(=O)N(C3CCC(=O)NC3=O)C4=O)CC[C@]3(C)C(=CC[C@@H]4[C@@]5(C)CC[C@H](O)C(C)(C)C5CC[C@]43C)[C@H]12 (stereo not given in full)
36

Provide measured Activity value, entry: O=C1CCC(N2C(=O)c3cccc(NC(=O)CCCCCOCCOCCOCCCCCCNC(=O)c4cccc(NC(=O)CSc5nc6ccccc6[nH]5)c4)c3C2=O)C(=O)N1 (stereo not given)
8

Provide measured Activity value, entry: O=C1CCC(N2C(=O)c3cccc(NC(=O)CCCCCOCCOCCOCCOCCCCCCNC(=O)c4cccc(NC(=O)CSc5nc6ccccc6[nH]5)c4)c3C2=O)C(=O)N1 (stereo not given)
32
